From: patent US20250152746A1

Tested on: PCSK9 gene
Protocol Details: PCSK9 gRNA/SpCas9 editing in primary human hepatocytes (Tables 2, 4)
Format: cell-based
Test Conditions: 500 ng/RNA/mL; SpCas9 mRNA MS002 1:1 by weight
In the oligonucleotide strings, read from the 5' end, every base follows the letter of its sugar. An asterisk marks phosphorothioate; unmarked linkages are phosphodiester. Other units and linkages are bracketed, terminal groups are in braces. A string of capitals states the bases alone. m = 2'-O-methyl; r = 2'-OH (RNA)
For each of the molecules below, state its Human Primary Hepatocyte Editing % 500.
Numbers only, in %.

Here are 8 molecules together with their reported answers.
- Molecule: "GA189: PCSK9 gRNA; protospacer TCCTCGATGTAGTCGACATG (SEQ ID NO: 183) (nucleic acid) guide: mU*mC*mC*rUrCrGrArUrGrUrArGrUrCrGrArCrArUrGrGrUrUrUrUrArGrArGrCrUrArGrArArArUrArGrCrArArGrUrUrArArArArUrArArGrGrCrUrArGrUrCrCrGrUrUrArUrCrArArCrUrUrGrArArArArArGrUrGrGrCrArCrCrGrArGrUrCrGrGrUrGrCrU*mU*mU*mU"
  Result Type: "Human Primary Hepatocyte Editing % 500"
  Observed Result: 8.94
- Molecule: "GA178: PCSK9 gRNA; protospacer CTCCTTCAGCACCACCACGT (SEQ ID NO: 172) (nucleic acid) guide: mC*mU*mC*rCrUrUrCrArGrCrArCrCrArCrCrArCrGrUrGrUrUrUrUrArGrArGrCrUrArGrArArArUrArGrCrArArGrUrUrArArArArUrArArGrGrCrUrArGrUrCrCrGrUrUrArUrCrArArCrUrUrGrArArArArArGrUrGrGrCrArCrCrGrArGrUrCrGrGrUrGrCrU*mU*mU*mU"
  Result Type: "Human Primary Hepatocyte Editing % 500"
  Observed Result: 5.43
- Molecule: "GA216: PCSK9 gRNA; protospacer CCGGGATGCCGGCGTGGCCA (SEQ ID NO: 210) (nucleic acid, sugars from the 5' end m3 r94 m3, linkages s3 o93 s3 (s phosphorothioate, o phosphodiester), T or U not given here) guide: CCGGGAUGCCGGCGUGGCCAGUUUUAGAGCUAGAAAUAGCAAGUUAAAAUAAGGCUAGUCCGUUAUCAACUUGAAAAAGUGGCACCGAGUCGGUGCUUUU"
  Result Type: "Human Primary Hepatocyte Editing % 500"
  Observed Result: 3.7
- Molecule: "GA213: PCSK9 gRNA; protospacer CGTGCTCAACTGCCAAGGGA (SEQ ID NO: 207) (nucleic acid, sugars from the 5' end m3 r94 m3, linkages s3 o93 s3 (s phosphorothioate, o phosphodiester), T or U not given here) guide: CGUGCUCAACUGCCAAGGGAGUUUUAGAGCUAGAAAUAGCAAGUUAAAAUAAGGCUAGUCCGUUAUCAACUUGAAAAAGUGGCACCGAGUCGGUGCUUUU"
  Result Type: "Human Primary Hepatocyte Editing % 500"
  Observed Result: 8.77
- Molecule: "GA169: PCSK9 gRNA; protospacer CGTGCGCAGGAGGACGAGGA (SEQ ID NO: 163) (nucleic acid, sugars from the 5' end m3 r94 m3, linkages s3 o93 s3 (s phosphorothioate, o phosphodiester), T or U not given here) guide: CGUGCGCAGGAGGACGAGGAGUUUUAGAGCUAGAAAUAGCAAGUUAAAAUAAGGCUAGUCCGUUAUCAACUUGAAAAAGUGGCACCGAGUCGGUGCUUUU"
  Result Type: "Human Primary Hepatocyte Editing % 500"
  Observed Result: 15.15
- Molecule: "GA171: PCSK9 gRNA; protospacer TCTTGGTGAGGTATCCCCGG (SEQ ID NO: 165) (nucleic acid, 2'-O-methyl at 1, 2, other sugars, backbone and T or U not given here; further chemistry not fully specified) guide: UCTTGGTGAGGTATCCCCGGGTTTTAGAGCTAGAAATAGCAAGTTAAAATAAGGCTAGTCCGTTATCAACTTGAAAAAGTGGCACCGAGTCGGTGCTTTT"
  Result Type: "Human Primary Hepatocyte Editing % 500"
  Observed Result: 9.38
- Molecule: "GA191: PCSK9 gRNA; protospacer GCCCCATGTCGACTACATCG (SEQ ID NO: 185) (nucleic acid) guide: mG*mC*mC*rCrCrArUrGrUrCrGrArCrUrArCrArUrCrGrGrUrUrUrUrArGrArGrCrUrArGrArArArUrArGrCrArArGrUrUrArArArArUrArArGrGrCrUrArGrUrCrCrGrUrUrArUrCrArArCrUrUrGrArArArArArGrUrGrGrCrArCrCrGrArGrUrCrGrGrUrGrCrU*mU*mU*mU"
  Result Type: "Human Primary Hepatocyte Editing % 500"
  Observed Result: 12.2
- Molecule: "GA182: PCSK9 gRNA; protospacer CACCTACGTGGTGGTGCTGA (SEQ ID NO: 176) (nucleic acid) guide: mC*mA*mC*rCrUrArCrGrUrGrGrUrGrGrUrGrCrUrGrArGrUrUrUrUrArGrArGrCrUrArGrArArArUrArGrCrArArGrUrUrArArArArUrArArGrGrCrUrArGrUrCrCrGrUrUrArUrCrArArCrUrUrGrArArArArArGrUrGrGrCrArCrCrGrArGrUrCrGrGrUrGrCrU*mU*mU*mU"
  Result Type: "Human Primary Hepatocyte Editing % 500"
  Observed Result: 4.49

# map each molecule to its Human Primary Hepatocyte Editing % 500
1. GA187: PCSK9 gRNA; protospacer CTCCTCGATGTAGTCGACAT (SEQ ID NO: 181) (nucleic acid) guide: mC*mU*mC*rCrUrCrGrArUrGrUrArGrUrCrGrArCrArUrGrUrUrUrUrArGrArGrCrUrArGrArArArUrArGrCrArArGrUrUrArArArArUrArArGrGrCrUrArGrUrCrCrGrUrUrArUrCrArArCrUrUrGrArArArArArGrUrGrGrCrArCrCrGrArGrUrCrGrGrUrGrCrU*mU*mU*mU
2. GA237: PCSK9 gRNA; protospacer CAACGCCGCCTGCCAGCGCC (SEQ ID NO: 230) (nucleic acid, sugars from the 5' end m3 r94 m3, linkages s3 o93 s3 (s phosphorothioate, o phosphodiester), T or U not given here) guide: CAACGCCGCCUGCCAGCGCCGUUUUAGAGCUAGAAAUAGCAAGUUAAAAUAAGGCUAGUCCGUUAUCAACUUGAAAAAGUGGCACCGAGUCGGUGCUUUU
3. GA164: PCSK9 gRNA; protospacer GTCCTCGTCCTCCTGCGCAC (SEQ ID NO: 158) (nucleic acid, sugars from the 5' end m3 r94 m3, linkages s3 o93 s3 (s phosphorothioate, o phosphodiester), T or U not given here) guide: GUCCUCGUCCUCCUGCGCACGUUUUAGAGCUAGAAAUAGCAAGUUAAAAUAAGGCUAGUCCGUUAUCAACUUGAAAAAGUGGCACCGAGUCGGUGCUUUU

6.47
15.83
11.12
